Reported Corn plant response rating values for the following compounds.
tested on: corn; test: Test B pre-/postemergence herbicide test; type: in vivo, Zea mays; conditions: Postemergence, 500 g ai/ha; scale 0 (no effect) to 100 (complete control)
PROPERTY NAME: Corn plant response rating

INSERT INTO measurements (mol, assay_system, property_name, quantitative_result) VALUES
  ('CC(C)(C)n1nc(Br)c(C(=O)Nc2cccc(C(=O)NC3CC3)c2)n1', 'corn', 'Corn plant response rating', 30),
  ('CCN(C)C(=O)c1ccc(F)c(NC(=O)c2nn(C(C)C)nc2C)c1', 'corn', 'Corn plant response rating', 0),
  ('Cc1nn(C(C)C)nc1C(=O)Nc1cccc(C(=O)N(C)C)c1', 'corn', 'Corn plant response rating', 10),
  ('CCc1nn(C(C)(C)C)nc1C(=S)Nc1cccc(C(=S)N(C)C)c1', 'corn', 'Corn plant response rating', 10),
  ('CCOC(=O)c1cncc(NC(=O)c2nn(C(C)(C)C)nc2C)c1', 'corn', 'Corn plant response rating', 0),
  ('CCOC(=O)c1cccc(NC(=O)c2nn(C(C)(C)C)nc2Br)c1', 'corn', 'Corn plant response rating', 30),
  ('CCN(CC)C(=O)c1ccnc(NC(=O)c2nn(C(C)(C)C)nc2C)c1', 'corn', 'Corn plant response rating', 20);

====

tested on: velvetleaf; experiment: Test B pre-/postemergence herbicide test; type: in vivo, Abutilon theophrasti; settings: 500 g ai/ha; visual rating 0-100, 0 no effect, 100 complete control; preemergence
PROPERTY NAME: Plant response rating, Velvetleaf

INSERT INTO assay_data (mol, quantitative_result) VALUES
  ('CCNC(=O)c1cccc(NC(=O)c2cn(C(C)(C)C)nc2CC)c1', 10),
  ('CCn1nc(C(C)(C)C)cc1C(=O)Nc1cccc(C(N)=O)n1', 100),
  ('COC(=O)c1cccc(NC(=O)c2sc(C(C)(C)C)nc2C)c1', 0),
  ('CCn1nc(C(C)(C)C)cc1C(=O)Nc1cc(C(=O)NCCOC)ccn1', 70),
  ('CC(=NO)c1cc(NC(=O)c2cc(C(C)(C)C)nn2C)ccc1F', 60),
  ('CCOC(=O)c1cccc(NC(=O)c2cn(C(C)(C)C)nc2CC)c1', 20),
  ('CCc1nc(C(C)(C)C)sc1C(=O)Nc1cccc(C(=O)NCC(F)(F)F)c1', 10),
  ('CC(=NO)c1cccc(NC(=O)c2cc(C(C)(C)C)nn2C(C)C)c1', 10),
  ('CCCCn1nc(C(C)(C)C)cc1C(=O)Nc1cccc(C(C)=NO)c1', 10),
  ('CCOC(=O)c1cccc(NC(=O)c2cc(C(C)(C)C)nn2CC)c1OC', 0);

====

system: corn; assay: Test C pre-/postemergence herbicide test; format: in vivo, Zea mays; settings: 250 g ai/ha; scale 0-100; preemergence
Description: […]
PROPERTY NAME: Plant response rating, Corn

INSERT INTO results (molecule, property_name, result) VALUES
  ('CCC1=NN(C(C)(C)C)CC1C(=O)Nc1cc(C(=O)N(C)C)ccc1F (racemic) [Compound 343]', 'Plant response rating, Corn', 70),
  ('CCN(C)C(=O)c1ccc(F)c(NC(=O)C2CC(C(C)(C)C)=NN2CC)c1 (racemic) [Compound 307]', 'Plant response rating, Corn', 30),
  ('CC(=NO)c1cccc(NC(=O)c2sc(C(C)(C)C)nc2C)c1 [Compound 195]', 'Plant response rating, Corn', 0),
  ('CCNC(=O)c1cccc(NC(=O)c2nn(C(C)(C)C)nc2C)c1 [Compound 392]', 'Plant response rating, Corn', 80);

====

system: woolly cupgrass; assay: Test C pre-/postemergence herbicide test; format: in vivo, Eriochloa villosa; details: Preemergence, 500 g ai/ha; scale 0 to 100, 0 no effect, 100 complete control
PROPERTY NAME: Cupgrass, Woolly plant response rating

INSERT INTO results (mol, quantitative_result) VALUES
  ('C#CCn1nc(C(C)(C)C)cc1C(=O)Nc1cccc(C(=O)NCC)c1', 70),
  ('C=CCNC(=O)c1cccc(NC(=O)c2cc(C(C)(C)C)nn2CC)c1', 80),
  ('CCn1nc(C(C)(C)C)cc1C(=O)Nc1cccc2c1CCN(C1CC1)C2=O', 10),
  ('CCOC(=O)c1cc(NC(=O)c2cc(C(C)(C)C)nn2CC)ccc1OC', 70),
  ('CC(=NO)c1cccc(NC(=O)c2sc(C(C)(C)C)nc2C)c1', 10);

====

Reported Plant response rating, Crabgrass, Large values for the following compounds.
system: large crabgrass; test: Test B pre-/postemergence herbicide test; type: in vivo, Digitaria sanguinalis; conditions: 500 g ai/ha; visual rating 0-100, 0 no effect, 100 complete control; preemergence
PROPERTY NAME: Plant response rating, Crabgrass, Large

INSERT INTO measurements (compound, assay_system, quantitative_result) VALUES
  ('C=Cn1nc(C(C)(C)C)cc1C(=O)Nc1cccc(C(C)=O)c1', 'large crabgrass', 100),
  ('CCc1nc(C(C)(C)C)sc1C(=O)Nc1cccc(C(=O)NCC(F)(F)F)c1', 'large crabgrass', 60),
  ('CCOC(=O)c1cc(N(C(C)=O)C(=O)c2cc(C(C)(C)C)nn2CC)ccc1C', 'large crabgrass', 20),
  ('COC(=O)c1cccc(NC(=O)c2sc(C(C)(C)C)nc2C)c1', 'large crabgrass', 0),
  ('CCCCNS(=O)(=O)c1cccc(NC(=O)c2cc(C(C)(C)C)nn2C)c1', 'large crabgrass', 0),
  ('CCNC(=O)c1cccc(NC(=O)c2cn(C(C)(C)C)nc2C)c1', 'large crabgrass', 90),
  ('CCNC(=O)c1cccc(NC(=O)c2sc(C(C)(C)C)nc2C)c1', 'large crabgrass', 100),
  ('CC(=NO)c1cccc(NC(=O)c2sc(C(C)(C)C)nc2C)c1', 'large crabgrass', 100),
  ('CC(=NO)c1cc(NC(=O)c2cc(C(C)(C)C)nn2C)ccc1F', 'large crabgrass', 100),
  ('CCNC(=O)c1cccc(NC(=O)c2sc(C(C)(C)C)nc2CC)c1', 'large crabgrass', 90),
  ('CCn1nc(C(C)(C)C)cc1C(=O)Nc1cccc([S+]([O-])C(F)(F)F)c1 (stereo not shown)', 'large crabgrass', 90),
  ('CCC(C)c1cc(C(=O)Nc2cccc(C(C)=NO)c2)n(C)n1 (stereo not shown)', 'large crabgrass', 90),
  ('CCn1nc(C(C)(C)C)cc1C(=O)Nc1cc(C(=O)NCCOC)ccn1', 'large crabgrass', 100);

====

Reported Surinam Grass plant response rating (0 to 100 scale) values for the following molecules.
tested on: Surinam grass; experiment: Test B pre-/postemergence herbicide test; assay type: in vivo, Urochloa decumbens; settings: 125 g ai/ha; 0 = no effect, 100 = complete control; preemergence
PROPERTY NAME: Surinam Grass plant response rating (0 to 100 scale)

INSERT INTO results (molecule, quantitative_result) VALUES
  ('CCn1nc(C(C)(C)C)cc1C(=O)Nc1cncc(C(=O)N(C)C)c1', 0),
  ('CCc1nn(C(C)(C)C)cc1C(=O)Nc1cc(C(=O)N(C)C)ccn1', 90),
  ('CC(=NO)c1cccc(NC(=O)c2sc(C(C)(C)C)nc2C)c1', 10),
  ('CCNC(=O)c1cccc(NC(=O)c2cn(C(C)(C)C)nc2CC)c1', 30),
  ('CCn1nc(C(C)(C)C)cc1C(=O)Nc1cccc(C(=O)N2CCOCC2)n1', 20),
  ('CCn1nc(C(C)(C)C)cc1C(=O)Nc1cc(OC)ccc1OC', 10),
  ('CCn1nc(C(C)(C)C)cc1C(=O)Nc1cc(C(=S)N(C)C)ccc1F', 100),
  ('CCN(CC)C(=O)c1cccc(NC(=O)c2nn(C(C)(C)C)cc2Br)c1', 0),
  ('CCc1nc(C(C)(C)C)sc1C(=O)Nc1cccc(C(=O)NCC(F)(F)F)c1', 0),
  ('C=CCN(C)C(=O)c1cccc(NC(=O)c2cc(C(C)(C)C)nn2CC)c1', 10),
  ('CCN(C)C(=O)c1ccc(F)c(NC(=O)C2CC(C(C)(C)C)=NN2CC)c1 (racemic)', 70);

====

test system: large crabgrass; assay: Test B pre-/postemergence herbicide test; assay type: in vivo, Digitaria sanguinalis; details: 125 g ai/ha; 0 is no effect, 100 is complete control; preemergence
Reported Plant response rating (0 to 100 scale), Crabgrass, Large values for the following compounds.
PROPERTY NAME: Plant response rating (0 to 100 scale), Crabgrass, Large

INSERT INTO assay_data (compound, quantitative_result) VALUES
  ('CCNC(=O)c1ccc(F)c(NC(=O)c2c3c(nn2CC)C(C)(C)CC3)c1', 20),
  ('CCc1nn(C(C)(C)CC)nc1C(=O)Nc1cc(C(=O)N(C)C)ccc1F', 10),
  ('Cc1nn(C(C)(C)C)nc1C(=O)Nc1cccc(C(=O)N2CC=CC2)c1', 90),
  ('CCOC(=O)c1ccc(F)c(NC(=S)c2cc(C(C)(C)C)nn2CC)c1', 60),
  ('CCc1nn(C(C)(C)C)nc1C(=S)Nc1cccc(C(=S)N(C)C)c1', 100),
  ('CCc1nn(C(C)(C)C)nc1C(=O)Nc1cccc(C(=O)N(C)CC)c1', 90),
  ('CCN(CC)C(=O)c1ccnc(NC(=O)c2nn(C(C)(C)C)nc2C)c1', 80),
  ('CCC1=NN(C(C)(C)C)CC1C(=O)Nc1cc(C(=O)N(C)C)ccc1F (racemic)', 40);
